# inhibition zone (IZ) annotations
System: Bacillus subtilis
assay.comment: Antimicrobial activity against Bacillus subtilis LMA0011 at 25 ug/8 mm disk after 18 hrs by paper disk method
Assay type: functional
outcome.measure: inhibition zone (IZ) (mm)

Cc1cc2c(cc1O)[C@@]1(C)[C@H](O)C[C@@](O)(O2)C1(C)C [ENOKIPODIN C] | 20
Oc1c(Cl)c(Cl)c(Cl)c(Cl)c1Cl [PENTACHLOROPHENOL] | 31
CC1=CC(=O)C([C@@]2(C)[C@H](O)CC(=O)C2(C)C)=CC1=O [ENOKIPODIN D] | 11
CC1=CC(=O)C([C@@]2(C)CCC(=O)C2(C)C)=CC1=O [ENOKIPODIN B] | 17
Cc1cc2c(cc1O)[C@@]1(C)CC[C@@](O)(O2)C1(C)C [ENOKIPODIN A] | 28
